assay: Antioxidant activity assessed as hydrogen peroxide scavenging activity after 10 mins; assay type: functional
METRIC_NAME: IC50 (µg/mL)
Number in µg/mL, nothing else.

Solved cases below.
[[record]]
structure_string = "CSc1nc(-c2cccc(O)c2O)c(C#N)c(=O)n1C"
metric_name = "IC50"
unit_tag = "µg/mL"
measured_value = 37

[[record]]
structure_string = "CCOC(=O)c1cnn(-c2nc(-c3ccccc3O)c(C#N)c(=O)n2C)c1N"
metric_name = "IC50"
unit_tag = "µg/mL"
measured_value = 58

[[record]]
structure_string = "CCOC(=O)c1cnn(-c2nc(-c3ccc(OC)cc3)c(C#N)c(=O)n2C)c1N"
metric_name = "IC50"
unit_tag = "µg/mL"
measured_value = 74


Asked: Quickly give me recorded IC50 for `CCOC(=O)c1cnn(-c2nc(-c3cccc(O)c3O)c(C#N)c(=O)n2C)c1N`
Given back: 53

Asked: Quickly give me recorded IC50 for `CSc1nc(-c2ccc(Cl)cc2)c(C#N)c(=O)n1C`
Given back: 56

Asked: Quickly give me recorded IC50 for `COc1ccc(-c2nc(NN)n(C)c(=O)c2C#N)cc1`
Given back: 32
